target: Ecdysone receptor (Drosophila melanogaster, UniProt P20153+P34021); experiment: Agonist activity at ecdysone receptor in Drosophila melanogaster S2 cells after 24 hr by luciferase reporter gene assay; format: cell-based
Sequence (P34021 whole entry): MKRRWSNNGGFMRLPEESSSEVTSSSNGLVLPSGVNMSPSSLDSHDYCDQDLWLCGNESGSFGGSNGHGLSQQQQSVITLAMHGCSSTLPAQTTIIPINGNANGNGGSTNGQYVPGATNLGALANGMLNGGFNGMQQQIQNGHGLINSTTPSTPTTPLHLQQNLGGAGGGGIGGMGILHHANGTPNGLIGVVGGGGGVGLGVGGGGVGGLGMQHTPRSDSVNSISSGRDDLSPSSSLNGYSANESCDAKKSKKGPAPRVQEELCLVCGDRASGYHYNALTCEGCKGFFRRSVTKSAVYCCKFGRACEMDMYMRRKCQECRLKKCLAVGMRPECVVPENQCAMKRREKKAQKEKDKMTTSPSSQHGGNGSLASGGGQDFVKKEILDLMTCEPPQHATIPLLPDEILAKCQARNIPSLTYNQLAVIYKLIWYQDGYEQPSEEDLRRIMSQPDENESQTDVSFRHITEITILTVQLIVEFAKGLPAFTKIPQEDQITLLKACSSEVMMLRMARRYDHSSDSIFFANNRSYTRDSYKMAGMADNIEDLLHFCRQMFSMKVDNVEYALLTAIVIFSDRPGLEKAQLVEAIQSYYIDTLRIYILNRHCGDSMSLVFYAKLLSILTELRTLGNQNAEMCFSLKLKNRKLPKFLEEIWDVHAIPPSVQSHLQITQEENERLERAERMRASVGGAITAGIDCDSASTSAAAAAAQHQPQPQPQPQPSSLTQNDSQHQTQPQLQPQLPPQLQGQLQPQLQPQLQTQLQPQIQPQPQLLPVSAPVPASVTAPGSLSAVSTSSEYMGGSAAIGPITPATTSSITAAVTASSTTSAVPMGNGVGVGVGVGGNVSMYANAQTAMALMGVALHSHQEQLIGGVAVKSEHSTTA
Sequence (P20153 whole entry): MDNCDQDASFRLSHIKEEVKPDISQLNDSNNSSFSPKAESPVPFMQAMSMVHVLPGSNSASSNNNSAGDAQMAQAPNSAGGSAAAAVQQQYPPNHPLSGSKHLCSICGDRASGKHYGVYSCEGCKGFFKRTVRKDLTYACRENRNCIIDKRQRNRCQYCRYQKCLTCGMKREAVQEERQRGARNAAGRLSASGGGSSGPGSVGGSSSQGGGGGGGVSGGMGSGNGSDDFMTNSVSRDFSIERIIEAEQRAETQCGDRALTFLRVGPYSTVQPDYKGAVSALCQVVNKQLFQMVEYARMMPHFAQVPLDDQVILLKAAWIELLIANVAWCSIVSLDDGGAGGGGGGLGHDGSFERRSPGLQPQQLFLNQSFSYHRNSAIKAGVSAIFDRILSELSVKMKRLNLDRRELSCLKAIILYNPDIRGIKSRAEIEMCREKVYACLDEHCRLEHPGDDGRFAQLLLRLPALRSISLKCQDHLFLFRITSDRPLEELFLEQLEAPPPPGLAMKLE
measured.property: EC50

### Prompt State the recorded EC50 for this entry: `CCCCCC(=O)NN(C(=O)c1cc(C)cc(C)c1)C(C)(C)C`
### Response > 100 µM

### Prompt Okay, and Cc1ccc(NC2CC(C)N(C(=O)c3ccc(Cl)cc3)c3ccc(C)cc32)cc1 (centres undefined) ?
### Response > 10 µM

### Prompt Okay, and Cc1ccc(NC2CC(C)N(C(=O)c3ccc(C)cc3)c3ccc(C)cc32)cc1 (centres undefined) ?
### Response > 10 µM

### Prompt Okay, and `Cc1cc(C)c(Cl)c(C(=O)N(NC(=O)c2ccccc2)C(C)(C)C)c1` ?
### Response > 100 µM
